Hey, just so you know, these numbers are from the supplement of paper PMC10307832.

System: HOP-62
Experiment: relative viability (nuclei count vs DMSO), 5 days (fraction); higher = more cells survive
Settings: first compound 0.04 µM
relative viability under 0.4 gets Y, anything at or over 0.4 gets N.

- O=C(O)c1ccc(-c2c[nH]c3ncc(-c4ccccc4)cc23)cc1C1CCCC1 + Cc1nc(NC(=O)N2CCC[C@H]2C(N)=O)sc1-c1ccnc(C(C)(C)C(F)(F)F)c1 [Alpelisib] (partner 2 µM): N
- O=C(O)c1ccc(-c2c[nH]c3ncc(-c4ccccc4)cc23)cc1C1CCCC1 + CC(C)C[C@H](NC(=O)[C@H](Cc1ccccc1)NC(=O)c1cnccn1)B(O)O [Bortezomib] (partner 0.002 µM): N
- O=C(O)c1ccc(-c2c[nH]c3ncc(-c4ccccc4)cc23)cc1C1CCCC1 + N=C(N)NC(=N)NCCc1ccccc1 [Phenformin] (partner 250 µM): N
- O=C(O)c1ccc(-c2c[nH]c3ncc(-c4ccccc4)cc23)cc1C1CCCC1 + Nc1nc2[nH]cc(CCc3ccc(C(=O)N[C@@H](CCC(=O)O)C(=O)O)cc3)c2c(=O)[nH]1 [Pemetrexed] (partner 0.2 µM): Y
- O=C(O)c1ccc(-c2c[nH]c3ncc(-c4ccccc4)cc23)cc1C1CCCC1 + CC(=O)Nc1cccc(-n2c(=O)n(C3CC3)c(=O)c3c(Nc4ccc(I)cc4F)n(C)c(=O)c(C)c32)c1 [Trametinib] (partner 0.02 µM): Y
